B1: tRNA (parent)
chain: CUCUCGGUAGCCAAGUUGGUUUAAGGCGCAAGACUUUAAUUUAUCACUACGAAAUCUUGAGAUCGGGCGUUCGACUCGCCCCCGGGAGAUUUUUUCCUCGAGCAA

# Variants of: B1
# assay_remarks: nonsense suppression (GFP-seq) (ratio to wild type); higher = more function; SUP4oc tRNA, yeast GFP reporter sort-seq
Variants at the floor of the assay were thinned out.
reported_metric: nonsense suppression
Give only the figure.

Fill blank: measured nonsense suppression of the variant U4C C83U is ____.
1.17

# repeat for A24C U55C
0.365

# repeat for U63G U70C C75U
0.099

# repeat for U17C G73A
0.899

# repeat for A9C C68U G78C
0.0334

# repeat for G18C C27G G67A G69C
1.05
